B1: F1*; the commonest letter at each place (parent)
chain: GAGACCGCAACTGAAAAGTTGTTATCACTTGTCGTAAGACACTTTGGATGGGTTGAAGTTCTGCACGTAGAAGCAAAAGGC

variants of: B1; assay: fraction ligated after 30 min (ligated reads / total reads); higher = more ligase activity; conditions: with F1*sub RNA substrate (template-directed ligation), 42 °C

{"change": "A24G C42G", "fraction ligated": 0.795}
{"change": "C28T G46T", "fraction ligated": 0.788}
{"change": "A41C G55C", "fraction ligated": 0.329}
{"change": "G46T A57G", "fraction ligated": 0.795}
{"change": "G38A G47T", "fraction ligated": 0.324}
{"change": "T45C G55C", "fraction ligated": 0.0438}
{"change": "C28G T44C", "fraction ligated": 0.778}
{"change": "T49A G50C", "fraction ligated": 0.502}
{"change": "T25G C42A", "fraction ligated": 0.737}
{"change": "A24G T44G", "fraction ligated": 0.791}
{"change": "T25G T32G", "fraction ligated": 0.293}
{"change": "T23C T35A", "fraction ligated": 0.845}
{"change": "T25C G38C", "fraction ligated": 0.0674}
{"change": "G34A G46C", "fraction ligated": 0.798}
{"change": "C42G A48G", "fraction ligated": 0.821}
{"change": "C26G C40G", "fraction ligated": 0.793}
{"change": "G31A A57C", "fraction ligated": 0.819}
{"change": "A27T G50A", "fraction ligated": 0.412}
{"change": "A41T T43G", "fraction ligated": 0.803}
{"change": "T35A A57T", "fraction ligated": 0.809}
{"change": "T25A A41C", "fraction ligated": 0.0344}
{"change": "A27C T43G", "fraction ligated": 0.765}
